- System: L1210 leukemia ip in BDF1 mice, survival T/C
- METHOD: NCI In Vivo Anticancer Drug Screen. Data for tumor model L1210 Leukemia (intraperitoneal) in B6D2F1 (BDF1) mice
- STUDY_CONDITIONS: endpoint: mean survival time; dose: 100.0 mg/kg/injection; schedule: Q01DX001 (ip); vehicle: carboxymethylcellulose (CMC); higher = longer survival
Toxic doses and inconclusive results are not listed.
Reported T/C values follow for various compounds

{"columns": ["COMPOUND", "READOUT_TYPE", "REPORTED_MEASUREMENT"],
 "data": [
  ["O=[N+]([O-])c1ccc(N/N=C/C(Br)(Br)Br)c([N+](=O)[O-])c1", "T/C", "94 % of control"],
  ["CCCCC(=O)N/N=C\\c1ccc(N(CC)CC)cc1", "T/C", "95 % of control"],
  ["ONC(=NCc1ccccc1)c1ccccc1", "T/C", "97 % of control"],
  ["CCC/C=C(\\C)C#CC1=CCCCC1", "T/C", "100 % of control"]
]}

Exercise: Consider the compound O=C1c2ccccc2-c2cccc(Cl)c21 and give its measured T/C.
Solution: 101 % of control

Exercise: Consider the compound CCOC(=O)CC(C(C)=O)C(=O)OCC (configuration not stated) and give its measured T/C.
Solution: 100 % of control

Exercise: Consider the compound CN(CCO)/N=N/c1nc[nH]c1C(N)=O and give its measured T/C.
Solution: 107 % of control

###

Reported T/C values follow for various compounds
- Tested on: L1210 leukemia ip in BDF1 mice, survival T/C
- METHOD: NCI In Vivo Anticancer Drug Screen. Data for tumor model L1210 Leukemia (intraperitoneal) in B6D2F1 (BDF1) mice
- STUDY_CONDITIONS: endpoint: mean survival time; dose: 25.0 mg/kg/injection; schedule: Q01DX009 (ip); vehicle: Klucel (hydroxypropylcellulose) (HPC); higher = longer survival
Inconclusive results and toxic doses are left out.

Consider the reported T/C for these compounds:
{"columns": ["COMPOUND", "TARGET_OF_ASSAY", "T/C"],
 "data": [
  ["O=c1oc2ccccc2c(O)c1Cc1c(O)c2ccccc2oc1=O", "L1210 leukemia ip in BDF1 mice, survival T/C", "86 % of control"],
  ["CC(C)S(=O)(=O)/C(Cl)=C(/Cl)C(Cl)=C(Cl)Cl", "L1210 leukemia ip in BDF1 mice, survival T/C", "101 % of control"],
  ["CC/C(=C/c1ccc(OC)c(OC)c1)[N+](=O)[O-]", "L1210 leukemia ip in BDF1 mice, survival T/C", "98 % of control"],
  ["c1ccc(COCCNCCOCc2ccccc2)cc1", "L1210 leukemia ip in BDF1 mice, survival T/C", "96 % of control"]
]}

Exercise: Consider the compound N#Cc1nc2ccc(Cl)cc2nc1C#N and give its measured T/C.
Solution: 104 % of control

Exercise: Consider the compound COc1cc2cccc(OC)c(=O)c2c(O)c1OC and give its measured T/C.
Solution: 92 % of control

Exercise: Consider the compound CC12CCC3c4ccc([O-])c([N+]#N)c4CCC3C1CCC2=O (stereo unspecified) and give its measured T/C.
Solution: 103 % of control

Exercise: Consider the compound CN(C)N=Nc1cc2c(cc1O)CC[C@@H]1[C@@H]2CC[C@]2(C)C(=O)CC[C@@H]12 and give its measured T/C.
Solution: 97 % of control

Exercise: Consider the compound COC(=O)NC(=S)Nc1ccccc1NC(=S)NC(=O)OC and give its measured T/C.
Solution: 94 % of control

Exercise: Consider the compound CCCC[P+](c1ccccc1)(c1ccccc1)c1ccccc1 and give its measured T/C.
Solution: 112 % of control

Exercise: Consider the compound Clc1ccc(Cl)c(NNc2cc(Cl)ccc2Cl)c1 and give its measured T/C.
Solution: 114 % of control

These entries and their values trace back to PubChem BioAssay AID248.
